experiment: gradient 5% acetonitrile 3 min, to 50% in 2 min, to 85% in 15 min, held 3 min, 100 µL/min; conditions: column: Zorbax Extend-C18 2.1 x 50 mm; eluents: water / acetonitrile, 0.1% formic acid
So I've got a bunch of molecules here, and I need their RP-LC retention time values.
Give your result as the value with the unit written after it.

>>> reported_result("O=C1NC(=O)[C@@H](c2cn3c4c(cccc24)CCC3)[C@@H]1c1c[nH]c2ccccc12")
"947 s"
>>> reported_result("CC1CCc2[nH]nc(C(=O)N3CCN(C(C)C)CC3)c2C1 (centres undefined)")
"588 s"
>>> reported_result("CCOc1ccc(-c2noc(N3CCC(C(=O)Nc4cc(Cl)ccc4OC)CC3)n2)cc1OC")
"1090 s"
>>> reported_result("COc1cccc(OC)c1CN1CC(n2cnnc2-c2cccnc2)C1")
"548 s"
>>> reported_result("N#Cc1cccc(NC(=O)Cn2cccc(-c3nc(-c4ccc(Cl)cc4)no3)c2=O)c1")
"926 s"

For each of the items listed, what is its RP-LC retention time?
1. CC(C)NC(=O)c1ccc(OCC2CCN(C(=O)c3ccccc3F)CC2)cc1
2. CCc1ccc(C(C)NC(=O)c2ccnc3c(NC(C)=O)cccc23)cc1 (centres undefined)
3. O=C(Cn1ccc2ccc(N3CCOCC3)nc21)NCc1ccc(C(F)(F)F)cc1
4. Cn1nc(-c2nc(-c3cccc(Cl)c3)no2)ccc1=O

A)
1: 822 s; 2: 896 s; 3: 958 s; 4: 942 s
